molecular target: human recombinant kinase full-length AKT1 E17K (Homo sapiens, UniProt P31749, E17K); construct: Purified human recombinant kinase full-length AKT1 E17K was expressed in insect cells; test: AKT1 E17K kinase assay (TR-FRET, Lance); settings: 0.6 nM AKT1 E17K, 50 nM Ulight-CREBtide, either 50 μM ATP or 2 mM ATP (not specified which), 60 min at RT
Sequence (P31749 whole entry E17K): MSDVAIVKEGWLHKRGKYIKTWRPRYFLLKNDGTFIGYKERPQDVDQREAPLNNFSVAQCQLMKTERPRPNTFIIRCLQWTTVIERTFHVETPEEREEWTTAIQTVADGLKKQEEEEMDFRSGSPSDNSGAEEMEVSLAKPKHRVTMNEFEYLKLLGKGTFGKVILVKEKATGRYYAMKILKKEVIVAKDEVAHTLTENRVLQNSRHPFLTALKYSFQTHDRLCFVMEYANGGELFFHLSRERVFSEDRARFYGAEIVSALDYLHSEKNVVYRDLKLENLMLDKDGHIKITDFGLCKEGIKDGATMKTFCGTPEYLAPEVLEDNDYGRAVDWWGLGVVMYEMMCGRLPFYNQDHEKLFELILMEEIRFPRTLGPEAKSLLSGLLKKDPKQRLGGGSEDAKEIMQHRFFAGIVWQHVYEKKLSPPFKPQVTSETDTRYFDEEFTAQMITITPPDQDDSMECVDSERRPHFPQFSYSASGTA
pIC50: −log10 of the molar value.
Provide the reported pIC50 of each item.

pIC50 reading for COc1ccc2nc(-c3cccnc3N)n(-c3ccc(CNC(=O)c4ccc(C(=O)O)cc4C)cc3)c2c1 [Compound 102] : < 6.30

pIC50 reading for CC(=O)Nc1cccc(-c2ccc3nc(-c4cccnc4N)n(-c4ccc(CNC(=O)c5cccc(CC(=O)O)c5)cc4)c3n2)c1 [Compound 81] : 6.70 to 7.30

pIC50 reading for CC(C(=O)O)c1ccc(C(=O)NCc2ccc(-n3c(-c4cccnc4N)nc4ccc(-c5ccccc5)nc43)cc2)cc1 (stereo not shown) [Compound 35] : > 7.30

pIC50 reading for Cc1c(C(=O)O)cccc1C(=O)N1CC(c2ccc(-n3c(-c4cccnc4N)nc4ccc(-c5ccccc5)nc43)cc2)C1 [Compound 77] : 6.70 to 7.30

pIC50 reading for Nc1ncccc1-c1nc2cc(-c3cccnc3)cnc2n1-c1ccc(CNC(=O)c2cccc(CCC(=O)O)c2)cc1 [Compound 94] : < 6.30

pIC50 reading for Nc1ncccc1-c1nc2ccc(-c3ccccc3)nc2n1-c1ccc(NC(=O)c2cccc(C(=O)O)c2F)nc1 [Compound 61] : 6.70 to 7.30

Note: attention shifts to another entry.
pIC50 reading for Cc1cc(C(=O)O)c(F)cc1C(=O)Nc1ccc(-n2c(-c3cccnc3N)nc3ccc(-c4ccccc4)nc32)c(C)n1 [Compound 149] : 6.70 to 7.30
